Molecular target: HLA-A*02:19
Test: IEDB peptide-MHC binding, purified MHC/direct/fluorescence; filed as Kd, often an IC50 or EC50 that approximates it; bounds were set here for any values at or beyond the usual limits of such assays
Conditions: source organism: Vibrio vulnificus CMCP6
property: Kd

Prompt line: Retrieve Kd on HLA-A*02:19; query `EMSLADYLY`
Response line: ≥ 20 µM

====

Please provide measured Kd for the entries that follow.
Target: HLA-B*58:01
Assay: IEDB peptide-MHC binding, purified MHC/direct/fluorescence; filed as Kd, often an IC50 or EC50 that approximates it; bounds were set here for any values at or beyond the usual limits of such assays
Conditions: source organism: Marburg virus - Musoke, Kenya, 1980

Prompt line: Identify the reported Kd for the following entry. `AEILSGRVI`
Response line: ≥ 20 µM

Prompt line: # return recorded Kd for input `QVGIFLICK`
Response line: ≥ 20 µM

====

I'd appreciate it if you could supply Kd values for the items below.
Biological target: HLA-A*24:02
Experiment: IEDB peptide-MHC binding, purified MHC/competitive/radioactivity; filed as Kd, often an IC50 or EC50 that approximates it; bounds were set here for any values at or beyond the usual limits of such assays
Conditions: source organism: Mammarenavirus brazilense
Kindly provide the numeric value in nM only, without the unit symbol.

Prompt line: Give measured Kd for `EFFECFKYLL` (HLA-A*24:02).
Response line: 1200

Prompt line: Specify the recorded Kd for `LYTVKFPNLI` , system: HLA-A*24:02.
Response line: 605

Prompt line: Report Kd from HLA-A*24:02 testing of `ICSSVLKRY`
Response line: 15400

====

Target: HLA-A*02:11
Assay: IEDB peptide-MHC binding, purified MHC/competitive/fluorescence; filed as Kd, often an IC50 or EC50 that approximates it; bounds were set here for any values at or beyond the usual limits of such assays
Conditions: source organism: Cryptosporidium parvum Iowa II
property: Kd

Prompt line: Annotate the sequence `RLKHIFLIF` with its measured Kd.
Response line: ≥ 20 µM

====

For each of the sequences below, state its pKd.
Molecular target: HLA-B*54:01
Test: IEDB peptide-MHC binding, purified MHC/competitive/radioactivity; filed as Kd, often an IC50 or EC50 that approximates it; bounds were set here for any values at or beyond the usual limits of such assays
Settings: source organism: Vaccinia virus WR
pKd: −log10 of the molar value.

Prompt line: Using HLA-B*54:01 as the test system, report measured pKd of `EPLSPDTCLL` .
Response line: ≤ 4.21

Prompt line: # return pKd for `DPEKFNARMA` , test system: HLA-B*54:01
Response line: 6.00

Prompt line: // output pKd; input `LPYVGDTSMM` ; system HLA-B*54:01
Response line: ≤ 4.16

Prompt line: For HLA-B*54:01, give pKd of the listed sequence: `RPEMQEFEY`
Response line: ≤ 4.11

Prompt line: Specify the recorded pKd for `DPQNAAVNV` , system: HLA-B*54:01.
Response line: ≤ 4.49

Prompt line: With HLA-B*54:01 as the test system, provide measured pKd for this sequence: `EPVVKDKIKL`
Response line: ≤ 4.37

Prompt line: # return pKd for `IPGDILSII` , test system: HLA-B*54:01
Response line: 6.43

====

Biological target: HLA-A*11:01
Test: IEDB peptide-MHC binding, purified MHC/direct/fluorescence; filed as Kd, often an IC50 or EC50 that approximates it; bounds were set here for any values at or beyond the usual limits of such assays
Settings: source organism: Yellow fever virus
property: Kd (nM)
Please reply with the bare figure in nM and do not write the unit itself.

Prompt line: Print HLA-A*11:01 Kd for `ALNTITNLK` .
Response line: 8.6

====

Molecular target: HLA-A*23:01
Assay: IEDB peptide-MHC binding, purified MHC/competitive/radioactivity; filed as Kd, often an IC50 or EC50 that approximates it; bounds were set here for any values at or beyond the usual limits of such assays
Conditions: source organism: Mammarenavirus guanaritoense
property: pKd
# pKd is unitless: minus log10 of the molar concentration; print number only

Prompt line: Using the record for `AIFFTTSLF` , state its measured pKd.
Response line: 6.61

====

Target: HLA-B*15:01
Experiment: IEDB peptide-MHC binding, purified MHC/direct/fluorescence; filed as Kd, often an IC50 or EC50 that approximates it; bounds were set here for any values at or beyond the usual limits of such assays
Conditions: source organism: Escherichia coli
Kindly state Kd for each of the entries shown.
Provide only the numeric value, understood in nM.

Prompt line: Given the sequence `LAAPCRNAL` , write its reported Kd.
Response line: 3730

Prompt line: Give the reported Kd for this sequence. `GLKRGGVLL`
Response line: 919

====

Target: HLA-B*27:05
Assay: IEDB peptide-MHC binding, purified MHC/competitive/fluorescence; filed as Kd, often an IC50 or EC50 that approximates it; bounds were set here for any values at or beyond the usual limits of such assays
Conditions: source organism: Influenza A virus (A/swine/Hong Kong/4/1976(H3N2))
property: pKd
Conceptually, pKd converts a concentration in mol/L into minus its log10.

Prompt line: Supply recorded pKd for `GRADTKILF` here.
Response line: 7.13

====

Molecular target: HLA-A*30:01
Assay: IEDB peptide-MHC binding, purified MHC/competitive/fluorescence; filed as Kd, often an IC50 or EC50 that approximates it; bounds were set here for any values at or beyond the usual limits of such assays
Conditions: source organism: Vibrio cholerae 2740-80
pKd: −log10 of the molar value.
property: pKd

Prompt line: Specify measured pKd for `REVFDYLLP` .
Response line: ≤ 4.70

====

Target: HLA-A*31:01
Test: IEDB peptide-MHC binding, purified MHC/competitive/fluorescence; bounds were set here for any values at or beyond the usual limits of such assays
Details: source organism: Homo sapiens
property: IC50 (nM)
Numbers only; they are read as nM.

Prompt line: Return reported IC50. Input sequence: `TMGTGTFGR`
Response line: 388

====

Target: HLA-B*58:01
Experiment: IEDB peptide-MHC binding, purified MHC/direct/fluorescence; filed as Kd, often an IC50 or EC50 that approximates it; bounds were set here for any values at or beyond the usual limits of such assays
Conditions: source organism: Influenza A virus (A/chicken/Vietnam/5/2003(H5N1))
property: Kd

Prompt line: Tell me Kd reported for `QTYDWTLNR`
Response line: ≥ 20 µM

====

Target: HLA-A*02:19
Experiment: IEDB peptide-MHC binding, purified MHC/direct/fluorescence; filed as Kd, often an IC50 or EC50 that approximates it; bounds were set here for any values at or beyond the usual limits of such assays
Conditions: source organism: Rio Mamore hantavirus
property: Kd

Prompt line: Provide only the value of recorded Kd for `LQPSDTLLF`
Response line: ≥ 20 µM

====

Target: HLA-A*02:16
Assay: IEDB peptide-MHC binding, purified MHC/competitive/fluorescence; filed as Kd, often an IC50 or EC50 that approximates it; bounds were set here for any values at or beyond the usual limits of such assays
Conditions: source organism: Cryptosporidium parvum Iowa II
pKd: −log10 of the molar value.
property: pKd

Prompt line: State, in one line, measured pKd of `RLKHIFLIF`
Response line: ≤ 4.70

====

Molecular target: HLA-A*26:01
Experiment: IEDB peptide-MHC binding, purified MHC/direct/fluorescence; filed as Kd, often an IC50 or EC50 that approximates it; bounds were set here for any values at or beyond the usual limits of such assays
Conditions: source organism: Vibrio vulnificus CMCP6
property: Kd

Prompt line: Consider the sequence `EMSLADYLY` and give its recorded Kd.
Response line: ≥ 20 µM

====

Biological target: HLA-A*03:01
Experiment: IEDB peptide-MHC binding, purified MHC/competitive/fluorescence; filed as Kd, often an IC50 or EC50 that approximates it; bounds were set here for any values at or beyond the usual limits of such assays
Settings: source organism: Vibrio antiquarius
property: Kd

Prompt line: Provide Kd value for the following sequence: `VTGCASLYV`
Response line: ≥ 20 µM

====

Molecular target: HLA-A*11:01
Assay: IEDB peptide-MHC binding, purified MHC/direct/fluorescence; filed as Kd, often an IC50 or EC50 that approximates it; bounds were set here for any values at or beyond the usual limits of such assays
Details: source organism: Escherichia coli
property: Kd (nM)
Express your answer in nM, writing the number without its unit.

Prompt line: Param request: Kd | system HLA-A*11:01 | item `ALMRWRHPR`
Response line: 9.36

====

Molecular target: HLA-B*15:01
Test: IEDB peptide-MHC binding, purified MHC/direct/fluorescence; filed as Kd, often an IC50 or EC50 that approximates it; bounds were set here for any values at or beyond the usual limits of such assays
Conditions: source organism: Ravn virus - Ravn, Kenya, 1987
pKd: −log10 of the molar value.
property: pKd

Prompt line: Consider the sequence `NLFDWMHFL` . State its measured pKd.
Response line: ≤ 4.70

====

Molecular target: HLA-A*26:01
Assay: IEDB peptide-MHC binding, purified MHC/competitive/radioactivity; filed as Kd, often an IC50 or EC50 that approximates it; bounds were set here for any values at or beyond the usual limits of such assays
Conditions: source organism: Dengue virus 4 Philippines/H241/1956
property: pKd
Please keep in mind that pKd is minus log10 of the molar concentration; only the number is needed.

Prompt line: Using HLA-A*26:01 as the test system, report measured pKd of `ETNMITLLV` .
Response line: 6.47

Prompt line: Output reported pKd of the sequence `GVVTKSGDY` on HLA-A*26:01.
Response line: 5.62

Prompt line: Quote HLA-A*26:01 pKd for entry `STANIFRGSY` .
Response line: 7.63

Prompt line: Please tell me the measured pKd for `ALITVSGLY` ; system: HLA-A*26:01.
Response line: 6.25

Prompt line: # return pKd of `ESPARLASAI` (system: HLA-A*26:01)
Response line: 5.35
